# ASSAY_OVERVIEW: protease stability score; higher = more stable; yeast display proteolysis, trypsin and chymotrypsin;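 further: relative to predicted unfolded state with 0 unfolded-like and 1 meaning tenfold more protease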
protease stability score reference
Provide a numeric answer; units are not to be included.

SEQUENCE_STRING: SEDERDARELMEIEIRAKRTGDEDTLERLMDPHMRTDINGKELVGREVLEWERKRVDHIHDFRIHHVTSVNGRLDIDASLRLTVDGVEETMRFRILTRKVNGRWIVEFLIVK
EXPERIMENTAL_READOUT: protease stability score
RESULT_VALUE: 0.985

SEQUENCE_STRING: DEEEELAKEMLERFNKSLHTGDEESIERLLDPDVRVIFNGKDLIGRETVADFLKEWRMSVHTFEIRRFHSQGEKMHLDGHTEIKIHFNGKTVHLNHRVEHHMHKVNGRWTIHSIQFL
EXPERIMENTAL_READOUT: protease stability score
RESULT_VALUE: 1.18

Note to self: protease stability score recorded for DEIQRLMKYVFEEWVKWFLTGDEEKFNKMVDPDVRLIVNGQHSHGREKANEMWEIYYERFDYIHEFRVHSIRIQGDKVHVDVRLIGRQGDKTIDTRTEIHLVIIDGRIKRAEVRVE was 2.62

Note to self: protease stability score recorded for SHWDQRLEELSKLVVDHLNTGDFEEIKRLVDPHMRLEIGDKTRIGREQIHEWLEEFLRRYKNARVEIRIEHHELYGEKFFADTRLNLHVGDKHHHFDTRLEIHVIDGKIHSMSMRIH was 1.1

Note to self: protease stability score recorded for DEDTHDNRHALELLLRFLETGDEDSLRELADPNARLSVNGRNQHGREDLFSTWSEMGVDHMEIKSHRIVDGRLLLHGHIKFNGRREDVHIFMVKIDGRWYIEEVKIL was 1.56

Note to self: protease stability score recorded for SEDEEILREILEETNKALHTGDENHIRHLLDPHVRWHVGDKTIIGRDLLVDILRRMGVKHHEIRLRDMDHVGEKIRLEGELIIRYGDKTETHDVTFVLIKFDGRWHIEEYIHG was 0.866

Note to self: protease stability score recorded for DEIEHMIHEIFERWIKAWLTGDWRTIEKLFDPDVRVEINGVEIIGRELMSKVLIRKYDEMRSRVKLESEHAQGDKAHFNVNIILHIGDKTIERRSRIHIRIYNGRIHEVRVEED was 2.4

Note to self: protease stability score recorded for SEEEESAKWFNHVRHEAERTGDEETLLRLLDPSVKSTYGDKTSHGRHEMEEIMKRLGVSRVHLDIRHVEVQGDKVNVDGLVEFDGQEMRVILIVLKIDGRWIAEHVIVH was -0.118

Note to self: protease stability score recorded for DEEKKLYHHIWDRLRRALETGNEEELHKLADPDVRVIIGDKHFHGRDELYRLTEEIRVVITEIRLHDKDHQGDKVILDVEERVNVQVDGKETEYRFRSTLYFVKINGRWTLRRIELK was 1.52

Data provenance is the NTF2 design screens of Basanta et al. (2020).
